Target: T1, SFACP, ACP of the FAS from Synechocystis
T1 chain: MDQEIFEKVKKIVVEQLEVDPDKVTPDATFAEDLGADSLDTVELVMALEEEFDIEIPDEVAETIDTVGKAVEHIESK
measured metric: kcat (s⁻¹)
Please reply with the bare figure in s⁻¹ and do not write the unit itself.

Here are 3 proteins together with their reported answers.
protein | unit symbol | kcat
APPT, Sfp-like phosphopantetheinyl transferase (PPTase) from Anabaena sp. PCC7120 (protein) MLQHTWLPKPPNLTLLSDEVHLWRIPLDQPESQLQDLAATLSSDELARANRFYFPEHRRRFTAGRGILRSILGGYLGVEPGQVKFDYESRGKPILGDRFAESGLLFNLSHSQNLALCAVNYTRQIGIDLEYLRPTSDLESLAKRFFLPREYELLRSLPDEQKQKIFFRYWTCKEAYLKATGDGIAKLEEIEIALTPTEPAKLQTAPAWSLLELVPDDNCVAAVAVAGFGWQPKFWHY | s⁻¹ | 0.0267
SPPT, Sfp-like phosphopantetheinyl transferase (PPTase) from Synechocystis sp. PCC6803 (protein) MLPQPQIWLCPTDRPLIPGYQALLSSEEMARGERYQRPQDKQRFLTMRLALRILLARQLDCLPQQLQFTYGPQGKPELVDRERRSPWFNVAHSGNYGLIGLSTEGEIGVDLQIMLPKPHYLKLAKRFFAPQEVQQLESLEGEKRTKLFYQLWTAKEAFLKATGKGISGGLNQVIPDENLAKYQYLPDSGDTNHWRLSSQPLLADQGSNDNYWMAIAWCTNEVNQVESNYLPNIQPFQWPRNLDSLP | s⁻¹ | 0.0233
MPPT, Sfp-like phosphopantetheinyl transferase (PPTase) from Microcystis aeruginosa NIES843 (protein) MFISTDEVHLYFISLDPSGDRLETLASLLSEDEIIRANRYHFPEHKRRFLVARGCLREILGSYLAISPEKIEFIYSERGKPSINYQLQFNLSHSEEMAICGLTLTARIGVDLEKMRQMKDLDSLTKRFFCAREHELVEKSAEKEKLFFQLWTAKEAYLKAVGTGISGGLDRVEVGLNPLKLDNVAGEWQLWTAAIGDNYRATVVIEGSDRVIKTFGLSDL | s⁻¹ | 0.02

Consider now this further protein.
Request: Item Sfp, phosphopantetheinyl transferase from Bacillus subtilis (protein) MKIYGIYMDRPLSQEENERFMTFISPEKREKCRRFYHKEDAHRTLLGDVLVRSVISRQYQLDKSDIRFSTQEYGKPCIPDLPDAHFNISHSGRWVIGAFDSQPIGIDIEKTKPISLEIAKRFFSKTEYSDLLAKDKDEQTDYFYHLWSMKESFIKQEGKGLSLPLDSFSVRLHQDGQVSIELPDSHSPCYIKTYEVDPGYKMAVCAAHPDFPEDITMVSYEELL has what recorded kcat?
Result: 0.0367

These data points were gathered from patent US20210087522.
